Test system: M14
assay_comment: NCI tumour cell line growth inhibition, 48 h
Activity calls are given as the source filed them. Cut-off read from the data, not from the text of the source: active = GI50 up to about 1.1 µM and inactive = higher.
Tick one outcome: t = active, f = inactive

(Q) Identify the outcome logged in this assay for the molecule shown: COc1ccc(N(C)CN(C)c2nc(N(C)C)nc(N(C)C)n2)cc1
(A) f

(Q) Identify the outcome logged in this assay for the molecule shown: C#CC(C)(C)OCCCCOc1cc(O)c2c(=O)c3ccccc3n(C)c2c1
(A) f

(Q) Identify the outcome logged in this assay for the molecule shown: CCCCSC1CCSc2c1ccc1ccccc21 (stereo unspecified)
(A) f

(Q) Identify the outcome logged in this assay for the molecule shown: COC1(OC)CCC2C1C1CCC(OC)(OC)C21 (stereo unspecified)
(A) f

(Q) Identify the outcome logged in this assay for the molecule shown: COc1c(O)c2ccccc2c2cc(O)ccc12
(A) f

(Q) Identify the outcome logged in this assay for the molecule shown: CCCCN(CCCC)C(=O)C(=O)CC(=O)c1ccc(Br)cc1
(A) f

(Q) Identify the outcome logged in this assay for the molecule shown: COC1C(N)C(OC2C(Oc3cccc4c(O)c5c(=O)oc6ccc(C)c7c(=O)oc(c34)c5c67)OC(C)C(O)C2(C)O)OC(C)C1O (stereo unspecified)
(A) t

(Q) Identify the outcome logged in this assay for the molecule shown: NNC(=O)CNC(=O)c1ccc(Cl)cc1Cl
(A) f

(Q) Identify the outcome logged in this assay for the molecule shown: COC(=O)CN1SC2(SC13C(C)(C)C(=O)C3(C)C)C(C)(C)C(=O)C2(C)C
(A) f

(Q) Identify the outcome logged in this assay for the molecule shown: O=C1C(Cl)N(c2ccccc2[N+](=O)[O-])C1c1c[nH]c2ccccc12 (stereo unspecified)
(A) f

(Q) Identify the outcome logged in this assay for the molecule shown: CC12CCc3ccccc3C1=Nc1ccccc12 (stereo unspecified)
(A) f

---

Test system: K562
assay_comment: NCI tumour cell line growth inhibition, 48 h
Active and inactive are the calls of the source. Rule as the data show it: active = GI50 up to about 1.1 µM and inactive = higher.
Tick one outcome: active, inactive

(Q) Identify the outcome logged in this assay for the compound shown: Cc1cc(=O)n2c3c(c4c(cc13)c(CN(C)C)cc(=O)n4C)OC2
(A) inactive

(Q) Identify the outcome logged in this assay for the compound shown: Clc1ncnc2c1nc(C#Cc1ccccc1)n2C1CCCCO1 (stereo unspecified)
(A) inactive

(Q) Identify the outcome logged in this assay for the compound shown: N#C/C(=C\c1cc(O)cc(O)c1)C(N)=O
(A) inactive

(Q) Identify the outcome logged in this assay for the compound shown: C=C(C=O)c1c2c(nc3ccccc13)C(=O)c1ccccc1C2=O
(A) active

(Q) Identify the outcome logged in this assay for the compound shown: Cc1c2c(c(C)n1-c1ccccc1)C(=O)N(CCSC(=N)N)C2=O
(A) inactive

(Q) Identify the outcome logged in this assay for the compound shown: C=C[C@H]1C=Cc2c(OC)cccc2[C@@H]1COP1(=S)NC(C)C(c2ccccc2)O1 (stereo partly specified)
(A) inactive

(Q) Identify the outcome logged in this assay for the compound shown: CC(=O)N1c2ccccc2C23CCN(C)CC4C(C)OCC(C4CC2=O)C13 (stereo unspecified)
(A) inactive

(Q) Identify the outcome logged in this assay for the compound shown: O=C(/C=C/c1cccs1)c1cccc(C(=O)/C=C/c2cccs2)n1
(A) inactive

Continuing:
(Q) Identify the outcome logged in this assay for the compound shown: CCN(CC)c1c(C(=O)/C=C/c2ccccc2)c(-c2ccccc2)nn(C)c1=O
(A) inactive

(Q) Identify the outcome logged in this assay for the compound shown: O=C(O)Cc1ccc(-n2nnc3c(=O)[nH][nH]c(=O)c32)cc1
(A) inactive

---

System: COLO 205
assay_comment: NCI tumour cell line growth inhibition, 48 h
Activity calls are given as the source filed them. Cut-off read from the data, not from the text of the source: active = GI50 up to about 1.1 µM and inactive = higher. Where a SMILES comes first, the peptide text is derived from it. [ ]: non-standard residue; d: D form. The star is where a group is joined. ξ: configuration not given here. X38 = O=C(OCc1ccccc1)[C@@H]1CCC[C@H]1N*; Fmoc = O=C(OCC1c2ccccc2-c2ccccc21)*; ξW = NC(Cc1c[nH]c2ccccc12)C(=O)O; ξF = NC(Cc1ccccc1)C(=O)O; Boc = CC(C)(C)OC(=O)*; ξK = NCCCCC(N)C(=O)O; ξT = CC(O)C(N)C(=O)O; tBu = CC(C)(C)*
measured_quantity: GI50

Worked cases, answers included:
(Q) // lookup GI50 | system=COLO 205 | key= Clc1cc(OCC23CC4CC(CC(C4)C2)C3)nc(OCC23CC4CC(CC(C4)C2)C3)n1
(A) > 100 µM (inactive)

(Q) // lookup GI50 | system=COLO 205 | key= CC(OC(C)(C)C)C(NC(=O)C(CCCCNC(=O)OC(C)(C)C)NC(=O)C(Cc1c[nH]c2ccccc12)NC(=O)C(Cc1ccccc1)NC(=O)OCC1c2ccccc2-c2ccccc21)C(=O)NC(Cc1ccccc1)C(=O)N[C@@H]1CCC[C@H]1C(=O)OCc1ccccc1 (stereo partly specified) (Fmoc-[ξF][ξW][ξK](Boc)[ξT](tBu)[ξF]-X38)
(A) > 100 µM (inactive)

(Q) // lookup GI50 | system=COLO 205 | key= COc1cc(C(=O)OC2CC(C)=CC[C@@]3(C)CC[C@](O)(C(C)C)C23)ccc1O (stereo partly specified)
(A) 20 µM (inactive)

(Q) // lookup GI50 | system=COLO 205 | key= Clc1ncnc2c1nc(C#Cc1ccccc1)n2C1CCCCO1 (stereo unspecified)
(A) 1.62 µM (inactive)

(Q) // lookup GI50 | system=COLO 205 | key= CN(CCO)Cc1ncccc1O
(A) > 100 µM (inactive)

Continuing:
(Q) // lookup GI50 | system=COLO 205 | key= O=C(O)C1CC(c2ccccc2)=NN1c1ccccc1 (stereo unspecified)
(A) 50.9 µM (inactive)

(Q) // lookup GI50 | system=COLO 205 | key= Cc1ccc(/C=C/C(=O)c2c([O-])on[n+]2-c2ccccc2)cc1
(A) 2.69 µM (inactive)

(Q) // lookup GI50 | system=COLO 205 | key= CC(C)(C)c1cc(OCc2nnc3sc(Cc4ccccc4)nn23)c(Cl)cc1OCc1nnc2sc(Cc3ccccc3)nn12
(A) 21.6 µM (inactive)

(Q) // lookup GI50 | system=COLO 205 | key= CC1=C[C@H]([C@H]2C=C(C)C(C(N)=O)=CN2Cc2c(Cl)cccc2Cl)N(Cc2c(Cl)cccc2Cl)C=C1C(N)=O
(A) > 75 µM (inactive)

(Q) // lookup GI50 | system=COLO 205 | key= CCN(CC)Cc1cc(Nc2c3ccccc3nc3c4ccccc4n(C)c23)ccc1O
(A) 4.73 µM (inactive)

(Q) // lookup GI50 | system=COLO 205 | key= CC1(C)SCc2nc3ncccc3n21
(A) > 100 µM (inactive)

(Q) // lookup GI50 | system=COLO 205 | key= CN(C)c1ccc2nc3c(C(=O)O)cc(O)c(O)c3[o+]c2c1
(A) 24.7 µM (inactive)

---

Tested on: KM-20L2
assay_comment: NCI tumour cell line growth inhibition, 48 h
The source made the active and inactive calls. Cut-off read from the data, not from the text of the source: active = GI50 up to about 1.1 µM and inactive = higher.
In this section, each of the molecules is paired with its reported GI50.

(Q) Reported GI50 for Cc1ccc2c(c1)NC(=O)C(N=[N+]=[N-])(c1ccccc1)C2=O (stereo not drawn) : what is it?
(A) 30.3 µM (inactive)

(Q) Reported GI50 for CCC1=C(C)/C(=C/c2[nH]c(C(Br)Br)c(CC)c2C)N=C1C(Br)Br : what is it?
(A) 41 µM (inactive)

(Q) Reported GI50 for C=C[C@H]1C=Cc2c(OC)cccc2[C@@H]1COP1(=S)NC(C)C(c2ccccc2)O1 (stereo partly drawn) : what is it?
(A) > 100 µM (inactive)

(Q) Reported GI50 for CCc1nnc(S)n1/N=C/c1ccc(-c2ccc([N+](=O)[O-])cc2)o1 : what is it?
(A) > 100 µM (inactive)

(Q) Reported GI50 for Cn1cnc([N+](=O)[O-])c1Sc1nc(N)nc2c1ncn2C1OC(CO)C(O)C1O (stereo not drawn) : what is it?
(A) 3.06 µM (inactive)

(Q) Reported GI50 for CC1CC2C3CCC4=CC(=O)C=CC4(C)C3(F)C(O)CC2(C)C1(O)C(=O)CO.Cc1cc(NS(=O)(=O)c2ccc(/N=N\c3cc(/N=N/c4ccc(S(=O)(=O)Nc5cc(C)nc(C)n5)cc4)c(OC(=O)C(Cl)Cl)c4cccc(NC(=O)C(Cl)Cl)c34)cc2)nc(C)n1 : what is it?
(A) 25.6 µM (inactive)

(Q) Reported GI50 for C[C@]12Cc3cn[nH]c3C(=O)C1CC[C@@H]1C2CC[C@@]2(C)C1CC[C@@H]2O (stereo partly drawn) : what is it?
(A) > 100 µM (inactive)

(Q) Reported GI50 for C#CC(C)(C)OCCCCOc1cc(O)c2c(=O)c3ccccc3n(C)c2c1 : what is it?
(A) 31.3 µM (inactive)

---

Tested on: NCI-H23
assay_comment: NCI tumour cell line growth inhibition, 48 h
Active and inactive are the calls of the source. Rule as the data show it: active = GI50 up to about 1.1 µM and inactive = higher.
measured_quantity: GI50

Worked cases, answers included:
(Q) Reported GI50 for COc1ccc(-c2oc3c(OC)c(OC)c(OC)c(O)c3c(=O)c2OC)cc1OC : what is it?
(A) 31.1 µM (inactive)

(Q) Reported GI50 for CCOC(=O)c1cc(Br)c(-c2cc(C)no2)[nH]1 : what is it?
(A) 24.4 µM (inactive)

(Q) Reported GI50 for CC(=O)OCCOCNC(=S)N/N=C(\C)c1cnccn1 : what is it?
(A) 58.2 µM (inactive)

(Q) Reported GI50 for CCN(CC)CCCN(c1cc(OC)cc2nccnc12)S(=O)(=O)c1ccc(C)cc1 : what is it?
(A) > 100 µM (inactive)

(Q) Reported GI50 for CCC(CC)C(=O)OC[n+]1cccc(-c2c(COC(=O)NC(C)C)c(COC(=O)NC(C)C)c3n2CCC3)c1 : what is it?
(A) 61.1 µM (inactive)

Continuing:
(Q) Reported GI50 for CC(=O)Nc1ccc(C(=O)NN2C(=O)C(Cl)/C2=C/c2ccco2)cc1 (centres undefined) : what is it?
(A) > 100 µM (inactive)

(Q) Reported GI50 for COC(=O)C1=C(OC(=O)/C(=C/c2ccccc2)c2ccc(Cl)cc2)C(C(=O)OC)[C@@]2(O)[C@@H](C(=O)OC)[C@H](C)C[C@@H]1[C@@H]2C(=O)OC (some centres undefined) : what is it?
(A) > 100 µM (inactive)

(Q) Reported GI50 for Clc1ccc(CCNCCNC2(c3cc4ccccc4s3)CCCCC2)cc1Cl : what is it?
(A) 1.78 µM (inactive)

(Q) Reported GI50 for N#Cc1c(N)nc2[nH]nc(N)c2c1-c1ccc(Cl)cc1 : what is it?
(A) 3.76 µM (inactive)

(Q) Reported GI50 for C=C(C=O)c1c2c(nc3ccccc13)C(=O)c1ccccc1C2=O : what is it?
(A) 0.481 µM (active)

(Q) Reported GI50 for CCC1=C(C)/C(=C/c2[nH]c(C(Br)Br)c(CC)c2C)N=C1C(Br)Br : what is it?
(A) 32.4 µM (inactive)

(Q) Reported GI50 for O=C(c1ccccc1)c1ccc(N2C(=O)/C(=C/c3cccc(Oc4ccccc4)c3)N=C2c2ccccc2)c(N2C(=O)/C(=C/c3cccc(Oc4ccccc4)c3)N=C2c2ccccc2)c1 : what is it?
(A) 29.6 µM (inactive)

(Q) Reported GI50 for O=C(NNC(=O)c1ccccc1SSc1ccccc1C(=O)NNC(=O)c1ccccc1S)c1ccccc1S : what is it?
(A) 12.3 µM (inactive)

All values here come from ChEMBL document CHEMBL1201862.
